Values from PubChem BioAssay (NCI)

# Tested on: K-562 leukemia
# Test: NCI-60 one-dose screen, 48 h
# Test Parameters: 10 µM
This is part of a sample that, as a whole, favours compounds with a hit. Of some 83,000 tested, about 20% had one in any assay. Calls of active or inactive are those of the source. Rule for the calls: active = growth percent below 10; inactive = the rest.
The reply should name one outcome from active, inactive

Query: Hi, sorry to bother you, what did the test record for `Cc1cc(C(C)(C)C)cc(C)c1Br` ?
Response: inactive

Query: Which outcome was entered for the compound `COC(=O)Nc1cccc(Cl)c1OC` in this test?
Response: inactive

Query: // param item: `O=C(/C(=N/O)c1ccccc1)c1ccccc1` ; yields the recorded call
Response: inactive

Query: Could you kindly confirm the outcome this assay logged for `CC(=O)Nc1cccc(NC(C)=O)n1` ?
Response: inactive

Query: Called result for Nc1ncnc2c1nc(N)n2C1OC(CO)C(O)C1O (stereo not drawn)
Response: inactive

Query: Record request — test call for `O=S(=O)(O)c1ccc(Cl)c(Cl)c1`
Response: inactive

Query: In this assay, the call recorded for Cc1cc(C(O)(c2ccc(Nc3ccccc3)cc2)c2ccc(Nc3ccc(S(=O)(=O)O)cc3)cc2)ccc1N (stereo not drawn) was what?
Response: active

Query: Each compound tested received a call. Report the one for `CCCCCCCCO` .
Response: inactive

Query: recorded result category for CCCOC(=O)C(O)c1ccccc1 (stereo not drawn) in this test
Response: inactive

Query: Could you please tell me the result logged for `CN(C)c1ccc(C(c2ccc(O)cc2)c2ccc(N(C)C)cc2)cc1` in this assay?
Response: inactive

Query: Check the results log: what was the call for `COC(=O)c1ccccc1N(C)C` ?
Response: inactive

Query: Check the results log: what was the call for `CC(=O)c1cc2c(cc1F)C(C)(C)CCC2(C)C` ?
Response: inactive

Query: Recorded call for O=C(O)C(c1ccccc1)C(O)c1ccccc1 (stereo not drawn) ?
Response: inactive
